Every entry's value here was drawn from ChEMBL document CHEMBL3861975.

Assay: Half life in Sprague-Dawley rat at 2 mg/kg, po by LC-MS/MS method
Assay type: ADME, organism-based
Details: in vivo
Each entry below carries its recorded half-life.
Just the number in h, nothing appended.

[
  {
    "COMPOUND": "COc1cc2c3c(ccc2cc1S(C)(=O)=O)O[C@H](c1cc(F)c(F)cc1F)[C@@H](N)C3",
    "half-life [h]": 6.83
  }
]

With those in mind, consider the next compound.
Q) Identify measured half-life associated with COc1cc2ccc3c(c2cc1OC)C[C@H](N)[C@@H](c1cc(F)c(F)cc1F)O3
A) 3.05

---

Experiment: Oral bioavailability in Sprague-Dawley rat at 2 mg/kg by LC-MS/MS method
Format: ADME, organism-based
Details: in vivo
Each entry below carries its recorded bioavailability.
Just the number in %, nothing appended.

[
  {
    "COMPOUND": "COc1cc2c3c(ccc2cc1S(C)(=O)=O)O[C@H](c1cc(F)c(F)cc1F)[C@@H](N)C3",
    "UNIT NAME": "%",
    "bioavailability": 54.8
  }
]

With those in mind, consider the next compound.
Q) Identify measured bioavailability associated with COc1cc2ccc3c(c2cc1OC)C[C@H](N)[C@@H](c1cc(F)c(F)cc1F)O3
A) 89.2

---

Each entry below carries its recorded MRT inf.
Assay: Mean residence time (0 to infinity) in Sprague-Dawley rat at 1 mg/kg, iv by LC-MS/MS method
Format: ADME, organism-based
Conditions: in vivo
Answer format: value, then unit.

[
  {
    "COMPOUND": "COc1cc2ccc3c(c2cc1OC)C[C@H](N)[C@@H](c1cc(F)c(F)cc1F)O3",
    "MRT inf": "4.87 h"
  }
]

Q) Identify measured MRT inf associated with COc1cc2c3c(ccc2cc1S(C)(=O)=O)O[C@H](c1cc(F)c(F)cc1F)[C@@H](N)C3
A) 7.56 h

---

Each entry below carries its recorded Tmax.
Assay: Tmax in Sprague-Dawley rat at 2 mg/kg, po by LC-MS/MS method
Assay type: ADME, organism-based
Conditions: in vivo
Just the number in h, nothing appended.

[
  {
    "COMPOUND": "COc1cc2ccc3c(c2cc1OC)C[C@H](N)[C@@H](c1cc(F)c(F)cc1F)O3",
    "UNIT NAME": "h",
    "Tmax": 4.67
  }
]

With those in mind, consider the next molecule.
Q) Identify measured Tmax associated with COc1cc2c3c(ccc2cc1S(C)(=O)=O)O[C@H](c1cc(F)c(F)cc1F)[C@@H](N)C3
A) 4.67
